Reference source for all entries: PubChem BioAssay (NCI)

- Tested on: M19-MEL melanoma
- experimental_details: NCI tumour cell line growth inhibition, 48 h
molecules and their reported TGI

Field: example entries. Status: answers known.
molecule	TGI
COc1cc2c(cc1OC)[C@]1(O)C(=O)c3ccc4c(c3O[C@@H]1CO2)C[C@H](C(C)(C)O)O4	> 100 µM
CCN(CC)CCNC(=O)c1ccccc1Nc1c(Cl)cccc1Cl	30.2 µM
CCCCCCc1ccc(O)cc1O	98 µM

Qu. Which TGI value belongs to NC(CCc1nc(-c2ccccc2)cs1)C(=O)O (centres undefined) ?
Ans. > 100 µM

Qu. Quick one: TGI of CC(=O)C1CC2(c3ccccc3)C(=O)c3ccccc3N2O1 (centres undefined) ?
Ans. > 100 µM

Qu. State the recorded TGI for this entry: CC[O+]=c1cccc2ssnc1-2
Ans. > 100 µM

Qu. Fill blank: measured TGI of the molecule Cc1cc(Cl)ccc1N1C(=O)C(=O)C(c2nc3ccccc3s2)/C(=N\NC(=O)c2ccccc2O)C1=O (centres undefined) is ____.
Ans. > 100 µM

Qu. Which measured TGI value corresponds to N#CC(C(=N/NC(N)=S)/C(=N\NC(N)=S)C(C#N)c1ccccc1)c1ccccc1 (centres undefined) ?
Ans. > 10 µM

Qu. Fill blank: measured TGI of the molecule C#Cc1cccc(N2C(=O)CC(=P(c3ccccc3)(c3ccccc3)c3ccccc3)C2=O)c1 is ____.
Ans. > 100 µM

Qu. For the molecule shown here, O=C(O)c1cc2c3c(c1)[C@H]1C=CC[C@H]1CN3CC1CC=CC21 (some centres undefined) , give the reported TGI.
Ans. > 100 µM

###

- System: ACHN renal
- experimental_details: NCI tumour cell line growth inhibition, 48 h
Entries and their TGI
Kindly provide the numeric value in µM only, without the unit symbol.

mol	unit_name	reported_measurement
CC(C)(C)c1ccc(NC(=O)c2cc(=O)c3ccccc3[nH]2)c(C(C)(C)C)c1O	µM	12.8
COc1ccc(OC)c2c1C(=O)C(Cl)=C(Cl)C2=O	µM	10.9

Continue with the next molecule.
Qu. Sample COc1ccc(-n2nc(C)c3c(Nc4ccc(NC(=O)Nc5cc(C(F)(F)F)ccc5F)cc4)ncnc32)cc1 — what was its TGI?
Ans. 42.9

###

- System: BT-549 breast
- experimental_details: NCI tumour cell line growth inhibition, 48 h
Quick reference for TGI among some compounds
Provide the reading as a plain figure in µM.

These solved cases illustrate the format of a correct answer.
compound	unit_name	TGI
Fc1ccc(C(OCCN2CC3CC2CN3CCCc2ccccc2)c2ccc(F)cc2)cc1 (centres undefined)	µM	24
Cc1occc1C(=S)Nc1ccc(Cl)c(C(=O)OCC2CC2)c1	µM	81.5
C=C(Cl)C(Br)(CCl)CCC(Cl)C(C)C (centres undefined) (tested in a mixture with another compound)	µM	3.19
CN1CCN(c2ccc(NC3=C(Cl)C(=O)c4ncccc4C3=O)cc2C(F)(F)F)CC1	µM	26.3

# evaluate next
Qu. Field request: TGI | item: C=C(C)[C@@H]1CC[C@]2(C)[C@H](CC=C3[C@@H]4CC(C)(C)CC[C@]4(C(=O)OC)CC[C@]32C)[C@@]1(C)CC/C(N)=N/O
Ans. 4.12

###

- System: HOP-18 NSCLC
- experimental_details: NCI tumour cell line growth inhibition, 48 h
Catalogue of compounds with associated TGI

Sample records with TGI:
compound	TGI
NC(Cc1ccc2oc3cc(=O)c4ccccc4c-3nc2c1)C(=O)O (stereo not given)	77.7 µM
COc1cc(C(C)c2cc3c(cc2OCCOCCOc2cc4c(cc2C(C)c2cc(OC)c(OC)c(OC)c2)OCO4)OCO3)cc(OC)c1OC (stereo not given)	> 10 µM
O=C1c2ccccc2N2OC3C4CCC(C4)C3C12c1ccccc1 (stereo not given)	> 100 µM
CCC(=O)NCC1(c2c[nH]c3ccccc23)SCCS1	> 100 µM
CC(=O)[CH-]C(=O)c1ccccc1.CC(=O)[CH-]C(=O)c1ccccc1.CC(C)CCCC(C)[C@H]1CCC2[C@@H]3CCC4C[C@@H]([O-])CC[C@]4(C)C3CC[C@@]21C.CC(C)CCCC(C)[C@H]1CCC2[C@@H]3CCC4C[C@@H]([O-])CC[C@]4(C)C3CC[C@@]21C.Cl.[Ti+4] (stereo not given in full)	> 25 µM
CCC1N2CCCCC2[C@@H]2c3[nH]c4ccccc4c3CCN12 (stereo not given in full)	> 100 µM
O=C(O)c1cc2c3c(c1)[C@H]1C=CC[C@H]1CN3CC1CC=CC21 (stereo not given in full)	> 100 µM
[O-]c1c(-c2ccccc2)[se]c(-c2ccccc2)[n+]1-c1ccccc1	25.6 µM
CCOc1ccccc1N=C(NC(=O)CC)SC	> 10 µM

# input for lookup
Qu. I'd like to know its TGI. The compound in question is NC(N)=NS(=O)(=O)c1ccc(NC(=O)c2ccc(Cl)c3c(Nc4ccc(S(=O)(=O)N=C(N)N)cc4)c4ccccc4nc23)cc1
Ans. > 100 µM
